From: patent US10717746B2

As shown below, each of these compounds has a reported IC50 value.
- ASSAYED SYSTEM: CDK9/CycT1 (Homo sapiens (Human))
- Sequence (P50750 whole entry): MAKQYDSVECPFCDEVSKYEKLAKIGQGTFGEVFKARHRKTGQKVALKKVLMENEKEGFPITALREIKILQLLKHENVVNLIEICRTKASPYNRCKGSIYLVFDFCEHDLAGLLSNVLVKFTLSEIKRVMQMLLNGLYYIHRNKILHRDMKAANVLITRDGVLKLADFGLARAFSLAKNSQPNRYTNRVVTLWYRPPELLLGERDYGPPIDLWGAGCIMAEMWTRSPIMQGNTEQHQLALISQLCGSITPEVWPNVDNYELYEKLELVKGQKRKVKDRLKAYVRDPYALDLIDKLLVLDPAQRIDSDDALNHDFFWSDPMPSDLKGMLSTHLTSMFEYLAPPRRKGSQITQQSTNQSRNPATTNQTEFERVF
- Sequence (O60563 whole entry partner): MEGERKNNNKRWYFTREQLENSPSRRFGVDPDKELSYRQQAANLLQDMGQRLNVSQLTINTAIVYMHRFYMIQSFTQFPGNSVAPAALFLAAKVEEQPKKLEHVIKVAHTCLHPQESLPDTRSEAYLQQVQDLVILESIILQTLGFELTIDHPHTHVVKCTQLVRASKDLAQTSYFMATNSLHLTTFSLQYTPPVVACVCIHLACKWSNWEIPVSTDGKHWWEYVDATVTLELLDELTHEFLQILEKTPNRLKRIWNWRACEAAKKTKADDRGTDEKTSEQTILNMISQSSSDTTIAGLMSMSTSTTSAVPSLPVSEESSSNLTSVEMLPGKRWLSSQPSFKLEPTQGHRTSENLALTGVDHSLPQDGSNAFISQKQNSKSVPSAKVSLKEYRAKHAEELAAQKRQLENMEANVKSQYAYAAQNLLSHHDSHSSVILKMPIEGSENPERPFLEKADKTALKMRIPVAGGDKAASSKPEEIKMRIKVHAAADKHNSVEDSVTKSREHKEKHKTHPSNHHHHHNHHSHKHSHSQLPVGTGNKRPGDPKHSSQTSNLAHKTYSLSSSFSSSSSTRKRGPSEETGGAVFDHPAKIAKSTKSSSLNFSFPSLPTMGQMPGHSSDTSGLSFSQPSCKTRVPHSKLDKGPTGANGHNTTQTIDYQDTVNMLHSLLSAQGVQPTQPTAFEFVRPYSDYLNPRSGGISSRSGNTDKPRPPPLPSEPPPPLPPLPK
- EXPERIMENT SUMMARY: CDK9 kinase assay, high ATP concentration (5 mM ATP)
- Type: biochemical
- COND: 1.5 nM CDK9, read-out: CDK9 High ATP conc. (IC50)
Report only the number, with the unit nM understood.

O=C(Nc1cc(-c2cnn3c2CCCC3)c(Cl)cn1)[C@H]1CCC[C@@H](NC(=O)C2(O)CC2)C1 :: 17
CC(=O)N[C@@H]1CCC[C@@H](C(=O)Nc2cc(-c3cnn4c3CC(C)(C)C4)c(F)cn2)C1 (single isomer, unassigned) :: 25
C[C@H](O)C(=O)N[C@@H]1CCC[C@H](C(=O)Nc2cc(-c3cnn4c3CCCC4)c(Cl)cn2)C1 :: 38

Could you now look at the following compound, please?
Looking up COC1CCn2ncc(-c3cc(NC(=O)[C@H]4CCC[C@@H](NC(C)=O)C4)ncc3Cl)c2C1 (single isomer, unassigned) [Example 72] , I found its IC50 recorded as 111
